Numbers sourced from PubChem BioAssay (NCI).

assay: NCI Yeast Anticancer Drug Screen. Data for the mec2-1 strain (AID 157); settings: S. cerevisiae mec2-1 strain, at 50.0 µM (retest, dose inferred, filed as 5.0), stronger effect = higher value
About 79,000 compounds went through this panel and 15% of them were active in at least one assay; those are over-represented in the sample as a whole.
Decision: growth inhibition >= 80% yields t, all other cases yield f.

compound=COc1ccccc1/C=C1\Sc2scc(-c3ccc(O)c(O)c3)[n+]2C1=O assignedclass=t
compound=CC(=O)Nc1ccc(/C=C2/NC(=S)N(/C=C3\C(=O)Oc4ccccc4C3=O)C2=O)cc1 assignedclass=f
compound=CCCN(CCC)C(=O)c1cccc2ccccc12 assignedclass=f
compound=COc1ccc2nc3cc([N+](=O)[O-])ccc3c(NCCO)c2c1 assignedclass=f
compound="Cc1ccc(C)c(NC(=O)/C(=N\\NC(N)=S)C(C#N)c2ccccc2)c1 (centres undefined)" assignedclass=f
compound=CC(C)(C)c1ccc(-c2nnc(SCc3ccc(Cl)cc3)n2-c2cccc(C(F)(F)F)c2)cc1 assignedclass=f
compound="COc1ccccc1C1c2cc3c(cc2OC(C)(O)C1C)OCO3 (centres undefined)" assignedclass=f
compound="CCCCCCCCCCCCCCCCn1cc(C(O)CN(C)C)c2ccccc21 (centres undefined)" assignedclass=t
compound="C/C=C(/CCC1NCCC2c3ccccc3NC12)[Si](C)(C)C (centres undefined)" assignedclass=f
compound=CCOc1c(N=Nc2ccc(Cl)cc2)c(-c2ccccc2)nn1C(N)=S assignedclass=t
compound=CN(C)C[N+](C)(C)Cc1ccc(C[N+](C)(C)C[N+](C)(C)Cc2ccc(CCl)cc2)cc1 assignedclass=f
compound=CC(=O)OC[C@@H](OC(C)=O)[C@H](OC(C)=O)c1cnn(-c2ccccc2)n1 assignedclass=f
compound="CCCCCCCCN(CCCCCCCC)CC(O)c1ccc2cc3c(nc2c1)CCCC3 (centres undefined)" assignedclass=t
compound=CCOc1ccc2c(ccc(/C=C\c3cc(C)c4cccnc4c3O)[n+]2C)c1 assignedclass=t
compound="COc1ccc(C2c3cn[nH]c3CC3CCCCC32)cc1 (centres undefined)" assignedclass=t
compound=Cc1ccc(O)c(Cc2cccc(Cl)c2)c1 assignedclass=t
compound=COC1=C(/C(=N/Nc2ccc([N+](=O)[O-])cc2[N+](=O)[O-])c2ccccc2)COC1=O assignedclass=f
compound="CN(/N=C\\c1ccc(Cl)cc1)C(c1ccc(Cl)cc1)N(C)/N=C/c1ccc(Cl)cc1 (centres undefined)" assignedclass=t
compound=C/C=C/C=C1\C=Cc2c(C(=O)OC)coc(=O)c21 assignedclass=t
compound=CCCCCCCCCCCCSC1=C(N)C(=O)c2ccccc2C1=O assignedclass=f
compound="CN(C)c1ccc(C(c2cc3c(cc2O)OCO3)N2CCCC2)cc1 (centres undefined)" assignedclass=t
compound=COc1ccc(N=Nc2ccc3oc(=O)c(C(=O)Nc4ccc(Cl)cc4)cc3c2)cc1 assignedclass=t
compound="COc1ccc(C2=CCC3C4CC=C5CC(O)CCC5(C)C4CCC23C)s1 (centres undefined)" assignedclass=f
compound=COc1ccc(Cc2c3ccccc3cc[n+]2C)cc1Oc1ccc(Cc2c3ccccc3cc[n+]2C)cc1 assignedclass=t
compound=CC(=O)Oc1c2c(c(OC(C)=O)c3c1n(C(C)=O)c1ccccc1n3C(C)=O)n(C(C)=O)c1ccccc1n2C(C)=O assignedclass=f
compound=CCn1cnc2[nH]cc(C#N)c2c1=O assignedclass=f
compound=COc1ccc(/C(=N\Nc2ccc(Br)cc2)c2ccccc2/C(=N/Nc2ccc(Br)cc2)c2ccccc2OC)cc1 assignedclass=f
compound=CCN(CC)CCOc1ccc(C(=C2CCCCC2)c2ccc(OCCN(CC)CC)cc2)cc1 assignedclass=f
compound=Oc1c(Br)ccc2cccnc12 assignedclass=t
compound="CCC(CO)Nc1nc2cc(Cl)ccc2c2ccc(Cl)cc12 (centres undefined)" assignedclass=t
compound=CCO[Si](CC)(OCC)OCC assignedclass=f
compound=CN(CCO)CCn1cnc2c1c(=O)n(C)c(=O)n2C assignedclass=f
compound=O=[N+]([O-])c1ccc(O)c(/C=N\NC(=S)Nc2ccc3cn[nH]c3c2)c1 assignedclass=f
compound="O=C1OC2=C(CCc3nc(-c4ccccc4)sc32)C(N(c2ccccc2)c2ccccc2)C1(Cl)Cl (centres undefined)" assignedclass=f
compound="CC1CN(CC2CCCCCCCCCCC2=O)CC(C)O1 (centres undefined)" assignedclass=f
compound=CC(=O)Nc1ccc(-c2csc(Nc3ccnc4cc(Cl)ccc34)n2)cc1 assignedclass=f
compound="COc1cccc(C2c3cc4c(cc3OC(N3CCOCC3)C2C)OCO4)c1 (centres undefined)" assignedclass=f
compound=O=C(O)COc1ccccc1C(=O)O assignedclass=f
compound="CCCC/C=C1/CCC(CN(C)C)C1=O (centres undefined)" assignedclass=f
compound=Cc1ccc(C)c([N+](=O)[O-])c1 assignedclass=f
compound=O=C(/C=C(/c1ccccc1)P(=O)(c1ccccc1)c1ccccc1)c1ccccc1 assignedclass=t
compound=Cc1cc(C(=O)c2ccccc2)ccc1O assignedclass=f
compound=O=C1c2cc(O)ccc2C(=O)c2c1ccc(O)c2O assignedclass=t
